- measured-target: T1, HLA-A*0201 molecule on human T2 cells (human)
- T1 construct: read out with anti-HLA-A2 antibody BB7.2-PE; also called HLA-A2
- assay-comment: T2 cells expressing HLA-A*0201, anti-HLA-A2-PE, FACS
Reported mean relative fluorescence intensity at 1.5625 µM peptide by item:
measurement-kind: mean relative fluorescence intensity at 1.5625 µM peptide

[[record]]
binder = "LMDLSTTPL (Fragment of human FOXM1) [FOXM1-H2]"
experimental_result = "5.3 % of HIV peptide"

[[record]]
binder = "FLVEDETVI [EZH2-B]"
experimental_result = "5.5 % of HIV peptide"

[[record]]
binder = "FLDSLGFSL [TYMS-B2]"
experimental_result = "10.7 % of HIV peptide"

[[record]]
binder = "SMFRVLIGT (Fragment of human EZH2) [EZH2-H2]"
experimental_result = "0 % of HIV peptide"

[[record]]
binder = "FLPFGFILV [IL13RA2-B]"
experimental_result = "14.8 % of HIV peptide"

[[record]]
binder = "YLLSAALTI [CHI3L1B3]"
experimental_result = "2.5 % of HIV peptide"

[[record]]
binder = "RLSSYLVEI [FOXM1-B]"
experimental_result = "0 % of HIV peptide"

[[record]]
binder = "GLLGEFLQI (also called B1RC5-B3) [BIRC5-B3]"
experimental_result = "9.4 % of HIV peptide"

